Could you please report measured MIC for the items listed next?
tested on: Klebsiella pneumoniae; experiment: Broth microdilution MIC (Example 12); details: Klebsiella pneumoniae CDC 115, ESBL/KPC

Task item: If you can, please state the reported MIC value of `C[C@H]1COc2c(N3CCN(C)CC3)c(F)cc3c(=O)c(C(=O)O)cn1c23` .
Reply: >8 µg/mL

Task item: Subsequent entry: `NCC[C@H](O)C(=O)N[C@@H]1C[C@H](N)[C@@H](O[C@H]2O[C@H](CN)[C@@H](O)[C@H](O)[C@H]2O)[C@H](O)[C@H]1O[C@H]1O[C@H](CO)[C@@H](O)[C@H](N)[C@H]1O`
Reply: 0.5 µg/mL

Task item: Subsequent entry: `CC(C)(O/N=C(\C(=O)N[C@@H]1C(=O)N2C(C(=O)[O-])=C(C[n+]3ccccc3)CS[C@H]12)c1csc(N)n1)C(=O)O`
Reply: >64 µg/mL

Task item: Subsequent entry: `C[C@@H](O)[C@H]1C(=O)N2C(C(=O)O)=C(S[C@@H]3CN[C@H](C(=O)N(C)C)C3)[C@H](C)[C@H]12`
Reply: >8 µg/mL

---

test system: Acinetobacter baumannii; test: Broth microdilution MIC (Example 12); conditions: Acinetobacter baumannii NCTC 13304, OXA
Could you please report measured MIC for the items listed next?
Give the value, in units of µg/mL, as a plain number.

Task item: If you can, please state the reported MIC value of NCC[C@H](O)C(=O)N[C@@H]1C[C@H](N)[C@@H](O[C@H]2O[C@H](CN)[C@@H](O)[C@H](O)[C@H]2O)[C@H](O)[C@H]1O[C@H]1O[C@H](CO)[C@@H](O)[C@H](N)[C@H]1O [AMK] .
Reply: 0.5

Task item: Subsequent entry: C[C@H]1COc2c(N3CCN(C)CC3)c(F)cc3c(=O)c(C(=O)O)cn1c23 [LVX]
Reply: 1

---

Could you please report measured MIC for the items listed next?
tested on: Pseudomonas aeruginosa; assay: Broth microdilution MIC (Example 12); conditions: Pseudomonas aeruginosa CDC 516, KPC/AmpC
Give the value, in units of µg/mL, as a plain number.

Task item: If you can, please state the reported MIC value of CC(C)(O/N=C(\C(=O)N[C@@H]1C(=O)N2C(C(=O)[O-])=C(C[n+]3ccccc3)CS[C@H]12)c1csc(N)n1)C(=O)O [CAZ] .
Reply: 64

Task item: Subsequent entry: C[C@H]1COc2c(N3CCN(C)CC3)c(F)cc3c(=O)c(C(=O)O)cn1c23 [LVX]
Reply: 0.25

Task item: Subsequent entry: NCC[C@H](O)C(=O)N[C@@H]1C[C@H](N)[C@@H](O[C@H]2O[C@H](CN)[C@@H](O)[C@H](O)[C@H]2O)[C@H](O)[C@H]1O[C@H]1O[C@H](CO)[C@@H](O)[C@H](N)[C@H]1O [AMK]
Reply: 2

---

system: P. aeruginosa; test: Broth microdilution MIC (Example 10); conditions: P. aeruginosa isolate 8797 (MEM-R, TOB-R, AMK-R, CIP-R, AZT-R, COL-R); initial MIC testing
Could you please report measured MIC for the items listed next?

Task item: If you can, please state the reported MIC value of `C[C@H]1[C@H](NC(=O)/C(=N\OC(C)(C)C(=O)O)c2csc(N)n2)C(=O)N1S(=O)(=O)O` .
Reply: >256 µg/mL

Task item: Subsequent entry: `NC[C@H]1O[C@H](O[C@H]2[C@H](O)[C@@H](O[C@H]3O[C@H](CO)[C@@H](O)[C@H](N)[C@H]3O)[C@H](N)C[C@@H]2N)[C@H](N)C[C@@H]1O`
Reply: >256 µg/mL

Task item: Subsequent entry: `NCC[C@H](O)C(=O)N[C@@H]1C[C@H](N)[C@@H](O[C@H]2O[C@H](CN)[C@@H](O)[C@H](O)[C@H]2O)[C@H](O)[C@H]1O[C@H]1O[C@H](CO)[C@@H](O)[C@H](N)[C@H]1O`
Reply: >256 µg/mL

Task item: Subsequent entry: `C[C@@H](O)[C@H]1C(=O)N2C(C(=O)O)=C(S[C@@H]3CN[C@H](C(=O)N(C)C)C3)[C@H](C)[C@H]12`
Reply: 32 µg/mL

---

system: Escherichia coli; assay: Broth microdilution MIC (Example 12); details: Escherichia coli CDC 114, ESBL/KPC
ENDPOINT NAME: MIC (µg/mL)
Give the value, in units of µg/mL, as a plain number.

Task item: If you can, please state the reported MIC value of `C[C@H]1COc2c(N3CCN(C)CC3)c(F)cc3c(=O)c(C(=O)O)cn1c23` .
Reply: 4

Task item: Subsequent entry: `C[C@@H](O)[C@H]1C(=O)N2C(C(=O)O)=C(S[C@@H]3CN[C@H](C(=O)N(C)C)C3)[C@H](C)[C@H]12`
Reply: 2

Task item: Subsequent entry: `NCC[C@H](O)C(=O)N[C@@H]1C[C@H](N)[C@@H](O[C@H]2O[C@H](CN)[C@@H](O)[C@H](O)[C@H]2O)[C@H](O)[C@H]1O[C@H]1O[C@H](CO)[C@@H](O)[C@H](N)[C@H]1O`
Reply: 1

---

system: Acinetobacter baumannii; assay: Broth microdilution MIC (Example 12); conditions: Acinetobacter baumannii CDC 308, ESBL/OXA
ENDPOINT NAME: MIC

Task item: If you can, please state the reported MIC value of `CC(C)(O/N=C(\C(=O)N[C@@H]1C(=O)N2C(C(=O)[O-])=C(C[n+]3ccccc3)CS[C@H]12)c1csc(N)n1)C(=O)O` .
Reply: 64 µg/mL

Task item: Subsequent entry: `C[C@H]1COc2c(N3CCN(C)CC3)c(F)cc3c(=O)c(C(=O)O)cn1c23`
Reply: 4 µg/mL

Task item: Subsequent entry: `NCC[C@H](O)C(=O)N[C@@H]1C[C@H](N)[C@@H](O[C@H]2O[C@H](CN)[C@@H](O)[C@H](O)[C@H]2O)[C@H](O)[C@H]1O[C@H]1O[C@H](CO)[C@@H](O)[C@H](N)[C@H]1O`
Reply: >64 µg/mL

Task item: Subsequent entry: `C[C@@H](O)[C@H]1C(=O)N2C(C(=O)O)=C(S[C@@H]3CN[C@H](C(=O)N(C)C)C3)[C@H](C)[C@H]12`
Reply: 8 µg/mL

---

tested on: P. aeruginosa; experiment: Broth microdilution MIC (Example 10); details: P. aeruginosa isolate 8798 (MEM-R, TOB-R, AMK-R, CIP-R, AZT-R, COL-R); initial MIC testing
ENDPOINT NAME: MIC (µg/mL)
Give the value, in units of µg/mL, as a plain number.

Task item: If you can, please state the reported MIC value of NCC[C@H](O)C(=O)N[C@@H]1C[C@H](N)[C@@H](O[C@H]2O[C@H](CN)[C@@H](O)[C@H](O)[C@H]2O)[C@H](O)[C@H]1O[C@H]1O[C@H](CO)[C@@H](O)[C@H](N)[C@H]1O [AMK] .
Reply: 128

Task item: Subsequent entry: C[C@@H](O)[C@H]1C(=O)N2C(C(=O)O)=C(S[C@@H]3CN[C@H](C(=O)N(C)C)C3)[C@H](C)[C@H]12 [MEM]
Reply: 64

Task item: Subsequent entry: C[C@H]1[C@H](NC(=O)/C(=N\OC(C)(C)C(=O)O)c2csc(N)n2)C(=O)N1S(=O)(=O)O [AZT]
Reply: 256

Task item: Subsequent entry: NC[C@H]1O[C@H](O[C@H]2[C@H](O)[C@@H](O[C@H]3O[C@H](CO)[C@@H](O)[C@H](N)[C@H]3O)[C@H](N)C[C@@H]2N)[C@H](N)C[C@@H]1O [TOB]
Reply: 32

---

system: vancomycin-intermediate Staphylococcus aureus (VISA); assay: Broth microdilution MIC (Example 12); details: Staphylococcus aureus NRS 22
ENDPOINT NAME: MIC (µg/mL)
Give the value, in units of µg/mL, as a plain number.

Task item: Param readout = MIC; param system = vancomycin-intermediate Staphylococcus aureus (VISA); param query = `CC(=O)NC[C@H]1CN(c2ccc(N3CCOCC3)c(F)c2)C(=O)O1` ; response: value
Reply: 1

Task item: Subsequent entry: `C[C@H]1COc2c(N3CCN(C)CC3)c(F)cc3c(=O)c(C(=O)O)cn1c23`
Reply: 8

Task item: Subsequent entry: `CN[C@H](CC(C)C)C(=O)N[C@H]1C(=O)N[C@@H](CC(N)=O)C(=O)N[C@H]2C(=O)N[C@H]3C(=O)N[C@H](C(=O)N[C@H](C(=O)O)c4cc(O)cc(O)c4-c4cc3ccc4O)[C@H](O)c3ccc(c(Cl)c3)Oc3cc2cc(c3O[C@@H]2O[C@H](CO)[C@@H](O)[C@H](O)[C@H]2O[C@H]2C[C@](C)(N)[C@H](O)[C@H](C)O2)Oc2ccc(cc2Cl)[C@H]1O`
Reply: 4
